Items are presented alongside their recorded pKi.
system_tested: Dipeptidyl peptidase 9 (Homo sapiens)
Sequence (Q86TI2 whole entry): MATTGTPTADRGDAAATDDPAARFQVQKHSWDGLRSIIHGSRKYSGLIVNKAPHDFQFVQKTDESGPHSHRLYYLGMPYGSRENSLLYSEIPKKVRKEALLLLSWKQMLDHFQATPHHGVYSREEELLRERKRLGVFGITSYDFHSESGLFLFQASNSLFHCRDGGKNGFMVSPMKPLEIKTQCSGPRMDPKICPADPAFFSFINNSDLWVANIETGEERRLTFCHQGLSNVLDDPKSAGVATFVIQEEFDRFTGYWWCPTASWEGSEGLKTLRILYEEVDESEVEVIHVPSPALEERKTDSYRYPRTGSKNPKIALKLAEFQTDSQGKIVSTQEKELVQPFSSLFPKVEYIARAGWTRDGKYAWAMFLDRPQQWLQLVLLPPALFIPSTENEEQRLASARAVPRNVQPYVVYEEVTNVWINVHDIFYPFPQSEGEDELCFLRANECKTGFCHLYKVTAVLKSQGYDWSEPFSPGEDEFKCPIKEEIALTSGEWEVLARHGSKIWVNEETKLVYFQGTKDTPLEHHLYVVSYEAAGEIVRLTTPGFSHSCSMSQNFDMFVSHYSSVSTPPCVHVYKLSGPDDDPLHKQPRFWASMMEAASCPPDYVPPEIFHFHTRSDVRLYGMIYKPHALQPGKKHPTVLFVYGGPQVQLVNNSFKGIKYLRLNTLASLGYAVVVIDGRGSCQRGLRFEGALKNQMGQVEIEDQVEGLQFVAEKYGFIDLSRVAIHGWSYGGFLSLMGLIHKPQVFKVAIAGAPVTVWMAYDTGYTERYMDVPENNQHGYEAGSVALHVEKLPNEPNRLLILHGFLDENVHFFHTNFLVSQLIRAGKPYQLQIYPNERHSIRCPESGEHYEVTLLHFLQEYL
pKi: −log10 of the molar value.

Consider the following illustrative entries.
entry_smiles	pKi
Cc1nc2cc(-c3ccccc3)nn2c(-c2ccc(Cl)cc2Cl)c1CN	< 4.70
Cc1nc2nc(-c3ccccc3)cn2c(-c2ccc(Cl)cc2Cl)c1CN	< 4.52
CCN(C)c1nc2nc(C)c(CN)c(-c3ccc(Cl)cc3Cl)n2n1	< 4.52
Cc1nc2c(-c3ccccc3)cnn2c(-c2ccc(Cl)cc2Cl)c1CN	< 4.52
COC(=O)c1nc2nc(C)c(CN)c(-c3ccc(Cl)cc3Cl)n2n1	< 4.52

Ask | # value lookup — system Dipeptidyl peptidase 9 (Homo sapiens), readout pKi, item `CCC(=O)c1cnn2c(-c3ccc(Cl)cc3Cl)c(CN)c(C)nc12`
Reply | < 4.52

Ask | Input `COCCN(C)c1nc2nc(C)c(CN)c(-c3ccc(Cl)cc3Cl)n2n1`
Reply | < 4.52

Ask | Input `Cc1nc2nc(C(=O)Nc3ccccc3)nn2c(-c2ccc(Cl)cc2Cl)c1CN`
Reply | < 5.00

Ask | Input `Cc1nc2nc(N3CCOCC3)nn2c(-c2ccc(Cl)cc2Cl)c1CN`
Reply | < 4.52

###

system_tested: Cytochrome P450 2C19 (Homo sapiens, UniProt P33261)
Sequence (P33261 whole entry): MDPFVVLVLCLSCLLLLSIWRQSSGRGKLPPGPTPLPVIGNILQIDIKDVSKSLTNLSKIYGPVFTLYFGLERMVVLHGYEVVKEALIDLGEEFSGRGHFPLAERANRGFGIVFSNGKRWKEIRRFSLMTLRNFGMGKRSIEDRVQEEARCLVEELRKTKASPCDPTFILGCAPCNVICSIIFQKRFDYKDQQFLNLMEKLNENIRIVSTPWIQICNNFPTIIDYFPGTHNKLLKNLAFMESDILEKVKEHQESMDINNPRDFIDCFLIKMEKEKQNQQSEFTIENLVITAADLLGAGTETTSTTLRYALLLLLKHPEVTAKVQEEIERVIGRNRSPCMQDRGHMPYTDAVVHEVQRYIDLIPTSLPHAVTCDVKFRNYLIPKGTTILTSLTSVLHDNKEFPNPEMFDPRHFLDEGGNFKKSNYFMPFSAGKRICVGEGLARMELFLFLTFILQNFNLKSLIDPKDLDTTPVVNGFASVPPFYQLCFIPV
reported_property: IC50 (µM)
Number in µM, nothing else.

Ask | For `Cc1nc2cc(-c3ccccc3)nn2c(-c2ccc(Cl)cc2Cl)c1CN` , what is its reported IC50?
Reply | 3

###

system_tested: Cytochrome P450 3A4 (Homo sapiens)
Sequence (P08684 whole entry): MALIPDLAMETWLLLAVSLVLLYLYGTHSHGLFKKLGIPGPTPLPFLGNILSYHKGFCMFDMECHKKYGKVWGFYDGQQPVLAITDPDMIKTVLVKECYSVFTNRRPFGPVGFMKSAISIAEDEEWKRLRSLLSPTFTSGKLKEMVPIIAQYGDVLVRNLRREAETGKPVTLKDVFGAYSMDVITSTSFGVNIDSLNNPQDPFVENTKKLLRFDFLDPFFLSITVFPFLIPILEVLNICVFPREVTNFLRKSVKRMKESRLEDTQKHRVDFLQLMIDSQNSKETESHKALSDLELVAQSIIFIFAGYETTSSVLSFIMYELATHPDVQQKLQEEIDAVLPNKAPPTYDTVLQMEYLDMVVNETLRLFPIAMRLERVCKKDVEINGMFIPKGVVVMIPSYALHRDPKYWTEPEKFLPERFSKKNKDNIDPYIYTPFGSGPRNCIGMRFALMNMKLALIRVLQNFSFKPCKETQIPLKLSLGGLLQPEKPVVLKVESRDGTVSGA
run_description: inhibition of CYP3A4
Type: ADME
reported_property: pIC50
API: returns pIC50 as number; meaning -log10 of concentration in mol/L.

Ask | For `Cc1nc2cc(-c3ccccc3)nn2c(-c2ccc(Cl)cc2Cl)c1CN` , what is its reported pIC50?
Reply | 6.00

###

system_tested: Cytochrome P450 1A2 (Homo sapiens)
Sequence (P05177 whole entry): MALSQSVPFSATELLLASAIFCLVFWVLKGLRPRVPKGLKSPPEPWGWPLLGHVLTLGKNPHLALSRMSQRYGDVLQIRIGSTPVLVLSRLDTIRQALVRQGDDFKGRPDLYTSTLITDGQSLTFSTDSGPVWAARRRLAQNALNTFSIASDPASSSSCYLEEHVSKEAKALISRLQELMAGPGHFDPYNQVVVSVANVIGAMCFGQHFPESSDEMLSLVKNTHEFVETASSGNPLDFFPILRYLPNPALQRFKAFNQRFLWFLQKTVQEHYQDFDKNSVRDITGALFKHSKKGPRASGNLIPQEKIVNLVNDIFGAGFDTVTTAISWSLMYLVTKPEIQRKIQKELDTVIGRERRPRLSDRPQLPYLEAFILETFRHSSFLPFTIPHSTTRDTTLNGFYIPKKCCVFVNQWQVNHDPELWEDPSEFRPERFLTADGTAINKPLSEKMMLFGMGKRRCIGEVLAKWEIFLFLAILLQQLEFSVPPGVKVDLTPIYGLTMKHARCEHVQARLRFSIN
run_description: inhibition of CYP1A2
Format: ADME
experimental_setup: read-out: IC50
reported_property: IC50 (µM)
Number in µM, nothing else.

Ask | For `Cc1nc2nc(-c3ccccc3)cn2c(-c2ccc(Cl)cc2Cl)c1CN` , what is its reported IC50?
Reply | 19

The measurements presented in this section are drawn from ChEMBL document CHEMBL1208739.
